test system: TLR2 induced IL-6 in peripheral blood mononuclear cells (PBMCs); test: PBMC TLR2 Induced IL-6 Assay; format: cell-based, human; details: Homo sapiens, PBMC, 5 h, human PBMCs, 10 μg/ml lipoteichoic acid for 5 hours, IL-6 by ELISA; value without asterisk; read-out: Cell IC50
Experimental readout: pIC50
pIC50 field: float, defined as -log10 of concentration (mol/L).

Use the examples below as a reference point.
Compound	Tested on	Assay result
CC(C)Nc1cc(Nc2ccc3ncsc3n2)ncc1C(=O)NCC(F)(F)C(C)(C)O [Example 313]	TLR2 induced IL-6 in peripheral blood mononuclear cells (PBMCs)	7.14
CC(C)(O)[C@@H](F)CNC(=O)c1cnc(Nc2ccc3ncsc3c2)cc1NC1CC1 [Example 366]	TLR2 induced IL-6 in peripheral blood mononuclear cells (PBMCs)	6.13
CC(C)Nc1cc(Nc2ccc3ncccc3n2)ncc1C(=O)NC[C@@H](F)C(C)(C)O [Example 123]	TLR2 induced IL-6 in peripheral blood mononuclear cells (PBMCs)	6.57
N#CCNC(=O)c1cnc(Nc2ccc3ncsc3c2)cc1NC1CCCC1 [Example 153]	TLR2 induced IL-6 in peripheral blood mononuclear cells (PBMCs)	6.29
CC(C)Nc1cc(Nc2ccc3ncsc3c2)ncc1C(=O)NC12CCC(O)(CC1)C2 [Example 176]	TLR2 induced IL-6 in peripheral blood mononuclear cells (PBMCs)	6.31
CC(C)(O)[C@H](F)CNC(=O)c1cnc(Nc2ccc3nccnc3n2)cc1NC1CC1 [Example 97]	TLR2 induced IL-6 in peripheral blood mononuclear cells (PBMCs)	6.52
CC(C)C(O)C(F)CNC(=O)c1cnc(Nc2ccc3ncsc3c2)cc1NC(c1ccccc1)C(O)CO (centres unmarked) [Example 27]	TLR2 induced IL-6 in peripheral blood mononuclear cells (PBMCs)	7.07

Would you kindly look at the next entry?
Fill in the blank: the reported pIC50 of CC(C)Nc1cc(Nc2ccc3ncsc3c2)ncc1C(=O)NC[C@@H](F)C(C)(O)C(F)(F)F (some centres unmarked) [Example 17] is ____.
6.66

* * *

Quick note: these are pIC50 numbers for system: IRAK4 (Homo sapiens (Human))
Sequence (Q9NWZ3 whole entry, species assumed): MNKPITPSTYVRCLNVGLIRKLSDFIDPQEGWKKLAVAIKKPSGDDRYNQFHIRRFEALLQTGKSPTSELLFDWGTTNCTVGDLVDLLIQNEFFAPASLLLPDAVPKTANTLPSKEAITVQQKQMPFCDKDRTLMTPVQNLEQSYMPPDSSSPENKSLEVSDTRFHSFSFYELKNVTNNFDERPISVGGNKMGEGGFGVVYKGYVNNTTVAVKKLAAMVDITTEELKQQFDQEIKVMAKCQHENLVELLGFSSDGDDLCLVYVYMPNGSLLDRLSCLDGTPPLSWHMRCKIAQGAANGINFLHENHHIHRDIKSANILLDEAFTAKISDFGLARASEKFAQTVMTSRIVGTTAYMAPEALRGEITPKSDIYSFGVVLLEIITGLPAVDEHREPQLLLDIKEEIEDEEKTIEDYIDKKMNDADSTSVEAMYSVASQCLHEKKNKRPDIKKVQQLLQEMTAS
The value called pIC50 is obtained by taking minus log10 of the concentration in mol/L.

Example results:
Compound	pIC50
CC(C)(O)[C@H](F)CNC(=O)c1cnc(Nc2ccc3ncc(C#N)cc3n2)cc1NC1CCCOC1 (stereo partly shown)	8.25
CC(O)([C@H](F)CNC(=O)c1cnc(Nc2ccc3ncsc3c2)cc1NC1CC1)C(F)(F)F (stereo partly shown)	8.31
CC(C)(O)[C@H](F)CNC(=O)c1cnc(Nc2ccc3ncsc3c2)cc1Nc1cccc(CO)c1	8.28

Please tell me: pIC50 of CC(Nc1cc(Nc2ccc3ncsc3c2)ncc1C(=O)NC[C@@H](F)C(C)(C)O)C1CC1 (stereo partly shown) , system IRAK4 (Homo sapiens (Human))?
7.24

* * *

Measured log10 of IC50 on IRAK4 (Homo sapiens (Human)) follows.
Scale: decimal log of IC50, IC50 in nM.

Example molecules with recorded log10 of IC50:
Molecule	Tested on	log10 of IC50
CC(C)Nc1cc(Nc2ccc3ncsc3c2)ncc1C(=O)NCC(F)(F)C(C)(C)O	IRAK4 (Homo sapiens (Human))	0.63
CCC(C)Nc1cc(Nc2ccc3ncsc3c2)ncc1C(=O)NC[C@@H](F)C(C)(C)O (some centres unmarked) [Example 137]	IRAK4 (Homo sapiens (Human))	0.56
CC(C)(O)[C@H](F)CNC(=O)c1cnc(Nc2ccc3nccnc3c2)cc1NC1CCCC1O (some centres unmarked)	IRAK4 (Homo sapiens (Human))	1.23
CCOC(=O)C1CC(Nc2cc(Nc3ccc4ncsc4c3)ncc2C(=O)NC[C@@H](F)C(C)(C)O)C1 (some centres unmarked)	IRAK4 (Homo sapiens (Human))	0.94
CCNc1cc(Nc2nc3scnc3cc2F)ncc1C(=O)NC[C@@H](F)C(C)(C)O	IRAK4 (Homo sapiens (Human))	0.61
CC(C)(O)[C@H](F)CNC(=O)c1cnc(Nc2ccn3nccc3n2)cc1NC1CC(F)C1 (some centres unmarked)	IRAK4 (Homo sapiens (Human))	0.62

Item CC(C)C(O)[C@H](F)CNC(=O)c1cnc(Nc2ccc3ncsc3c2)cc1NC1CC1 (some centres unmarked) with IRAK4 (Homo sapiens (Human)) - log10 of IC50?
0.86

Give IRAK4 (Homo sapiens (Human)) log10 of IC50 for CC(C)(O)[C@H](F)CNC(=O)c1cnc(Nc2ccc3ncccc3n2)cc1NC1CCOCC1
0.20
